# Assay Text: yeast display, Sf9 membrane polyspecificity reagent, FACS + sequencing; frameworks hold sequencing errors
Quantity Measured: polyreactivity (PSR sort gate)

| Sequence Content | Quantity Measured | Result |
| --- | --- | --- |
| QVQLVESGGGLVQAGGSLRLSCAASGRTFGRNAMGWYRQAPGKERELVAAITWSGGSTYYADSVKGRFTISRDNAKNTVYLQMNSLKPEDTAVYYCAADRSRWGQGTQVTVSS | polyreactivity (PSR sort gate) | high polyreactivity |
| QVQLVESGGGLVQAGGSLRLSCAASGRTFTGNAMGWYRQAPGKERELVAAISQRGGRTNYADSVKGRFTISRDNAKNTVYLQMHSLKPEDTAVYYCAADQSYPKRLPSFEYWGQGTQVTVSS | polyreactivity (PSR sort gate) | low polyreactivity |
| QVQLVESGGGLVQAGGSLRLSCASSGSNTFINAMGWYRQAPGKERELVAAISGSGGSTYYADSVKGRFTISRDNAKNTVYLQMNFLKPEDTAVYYAARTGQYKTYGEYDYWGQGTQVTVSS | polyreactivity (PSR sort gate) | low polyreactivity |
| QVQLVESGGGLVQAGGSLRLSCAASGRTFFRYGMGWYRQAPGKEREFVAAITRSGTTTYYADSVKGRFTISRDNAKNTVYLQMNSLKPEDTAVYYCAAQRAARVDGKSDYWGQGTQVTVTS | polyreactivity (PSR sort gate) | low polyreactivity |
| QVLLVESGGGLVQAGGSLRLSCAATGSTFIRNAMGWYSQAPGKERELVAVISSGGSTYYADSVKGRFTISREIAKNTVYLQMNSLKPEDTAVYYCPAGDPQKEDYWGQGTQVTVSS | polyreactivity (PSR sort gate) | low polyreactivity |
| QVQLVESGGGLVQAGGSLRLSCAASGRTFGRYVMGWYRQAPGKERQLVARIRGSTTSTYYADSVKGRFTISRDNAKNTVYLQMNSLKPEDTAVYYCAASYSPFASSYGYDYWGQGTQVTVSS | polyreactivity (PSR sort gate) | high polyreactivity |
| QVQLVQSRGGLVQAGGSLRLSCAASGSTFSGNAMGWYRPAPGKEREFVAAITSSGGSTYYADSVKGRFTISRDNAKNSVYLQMNSLKPEDTAVYYCATDNPFLWWFRPDQHGMGYWGQGTQVTVSS | polyreactivity (PSR sort gate) | low polyreactivity |
| QVQLVESGGGLVQAGGSLRLSCAASGRTFWKYVMGWYRQAPGKEREVVAVISRPAGSTYYADSVKGRFTISRDNAKNTVYLQMNSLKPEETAVYYCNKPGGQSLGGYNYWVQGTQVTVSS | polyreactivity (PSR sort gate) | low polyreactivity |
| QVQLVESGGGLVQAGGSLRLICAASGNIFYRYAMGWYRQAPGKERELVAAISGNSGNTYYADSVKGRFTISRDNAKNTVYLQMNSLKPEDTAVYYCNARVVVRRDYWGQGTQVTVSS | polyreactivity (PSR sort gate) | high polyreactivity |
| QVQLVESGGGLVQAGGSLRLSCAPSGFIFRLNGMGWYIQAPGKERELVATIDSGSSTNYADSVKGRFTISRDNAKNTVYLQMNSLKPEDTAVYYCAAVVISYYTHGDYDYWGQGTQVTVSS | polyreactivity (PSR sort gate) | low polyreactivity |
| QVQLVESGGGLVQAGGSLRLSCSASGSTFGYYAMGWYRQAPGKERELVAAITRSGGSTFYADSVKGRFTISRDNAKNTVYLQMNSLKPEDTAVYYCAATYWPYRPGYYYWGQGTQVTVSS | polyreactivity (PSR sort gate) | high polyreactivity |

---

# Assay Text: yeast display, Sf9 membrane polyspecificity reagent, FACS + sequencing; frameworks hold sequencing errors

| Sequence Content | polyreactivity (PSR sort gate) |
| --- | --- |
| QVQHVESGGGLVQAGGSLRLSCAASGRTFNAYTMGWYRQAPGKERELVAAITSSGGNTYYADSVKGRFTISRDNAKNSVYLQMNSLKPEDTAVYYCNTVYLYGTHDYWGQGTQVTGSS | low polyreactivity |
| QVQLVESGGGLVQAGGSLRLSCAASGITFRYNAMGWYRQAPGKERELVAAISYSGGSTYYADSVKGRFTISRDNAKNTVYLQMNSLKPEDTAVYYCAARIYSYPRGQYDYWGQGTQVTVSS | low polyreactivity |
| QVQLVESGGGLVQAGGSLRLSCAASGRTFAIYAMGWYRPAPGKEREFVAAISWSGGDTYYADSVKGRFTISRDNAKNTVYLQMNSLKPEDTAVYYCAARDYDYEGRDLQYELDYWGQGTQVTVSS | low polyreactivity |

---

# Assay Text: yeast display, Sf9 membrane polyspecificity reagent, FACS + sequencing; frameworks hold sequencing errors

| Sequence Content | polyreactivity (PSR sort gate) |
| --- | --- |
| QVQLVESGGGVVQAGGSLRLSCAAYGFIYKQNAMGWYRQAPGKERELVATITRGGDTKYADSVKGRFTISRDNAKNTVYLLMNSLKPEDTAVEYCAARYTPSSSIYRFYNFYGYDYWGQGTQVIVSS | high polyreactivity |
| QVQLVESGGGLVQAGGSLRLSCAASGRIFSKYAMGWYRQAPGKERELVASIRWRGDRTYYADSVKGRFTISRDNAKNTVDLQMNSLIPEDTAVYYCAADEPGYGVGYWTYPVVPYDYWGQGTQVTVSS | low polyreactivity |
| QVQLVESGGGLVQAGGSLRLSCAASGRIHVYTMRWYRQAPGQERELVAAITWSGTSTNYADSVKGRFTLSRDNAKNTVYLKMNILKPEDTAVYYCAADISGVLSVSNVRGFDYWGQGTQVTVSS | low polyreactivity |
| QVQLVESGGRLVQEGRSLRLSCAASGSIFSRYAMGWYRQAPRKERELVAAITWSGGSTYYADSVKGRFTISRDNAKNNVYLQMNSLKPDDTAVYYCAAVGYAPYNHRYDSWGQGTQVTVSS | low polyreactivity |
| QVQLVESGGGLVQAGGSRRLSCAASGGTFPFNAMGWYSPAPGKERELVAAITFTTSSTYYADSVKGRFTMSRDNAKNTVYLQMTSLKPEDTAVDYCAVDYGWYSAYYRESDYWGQGTQVTVSS | low polyreactivity |
| QVQLVESGGGLVQAGGSLRLSCAASGSTFSDYAMGWYRQAPGKERELVAAISDSGSGTYYADSVKGRFTISRDNAKNTVYLQMNSLKPEDTAVYYCNTDPRFAMDWGQGTQVTVSS | low polyreactivity |
| QVQLVESGGGLVQAGGSLRLSCAASGSIFDTYTMGWYRQAPGKERELVAAITSGTTTTYADSVKGRFTISRDNAKNTVYLQMNSLKPEDTAVYYCAARTSGSFDYCGQGTQVTVSS | low polyreactivity |
| QVQLVESSGGLVQAGGSLRLICAASGRIFSRYPMGWYRKAPGKERELVAAITYSGGNTYYADSVKGRFTISRDYAKNTVYLQMNSLKPEDTAVYYCNAYRPYYSYVSHEHYYWGQGTQVTVSS | high polyreactivity |
| QVQLVESGGGLVQAGGSLRLSCAASGRTFYGNAMGWYRQAPGKERELVAAITSGGGSTRYADSVKGRFTISRDNAKNSVYLQMNSLKPEDTAVYYCAALYWYEYTYLEYDYWGQGTQVTVSS | high polyreactivity |
| QVQLVESGGGLVQAGGSLRLSCAASGSTFSKYAMGWYRQAPGKERELVAAITWRASTYYADSVKGRFTISRDNAKNTVYLQMNSLKPEDTAVYYCAVRQSQRGGTSSNTSNDYWGQGTQVTVSS | high polyreactivity |
| QVQLVESGGGLVQAGGSLRLSCAASGRTFYRYAMGWYRQAPGKEREYVASITRGGGITYYADSVKGRFTISRDNAKNTVYLQMNSLKPEDSAVYYCAARQYGPRYTFYYWGQGTQVTVSS | high polyreactivity |

---

# Assay Text: yeast display, Sf9 membrane polyspecificity reagent, FACS + sequencing; frameworks hold sequencing errors
Quantity Measured: polyreactivity (PSR sort gate)

| Sequence Content | Quantity Measured | Result |
| --- | --- | --- |
| QVQLVESGGGLVQAGGSLRLSCAASGSIFDSYTMGWYRQAPGKERELVATINRSGGSTYYADSVKGRFTISRDNAKNTVYLQMNSLKPEDTAVYYCANVYPYTPYSSWRSKYDYWGQGTQVTVSS | polyreactivity (PSR sort gate) | low polyreactivity |
| QVQLVESGGGLVQAGGSLRLSCAASGRTFGGNAMGWYRQAPGKERELVAAISSGGSTNYADSVKGRFTISRDNAKNTVYLQMNSLKPEDTAVYYCAAGWYWWARYDYWGQGTQVTVSS | polyreactivity (PSR sort gate) | low polyreactivity |

---

# Assay Text: yeast display, Sf9 membrane polyspecificity reagent, FACS + sequencing; frameworks hold sequencing errors
Quantity Measured: polyreactivity (PSR sort gate)

| Sequence Content | Quantity Measured | Result |
| --- | --- | --- |
| QVQLVESGGGLVQAGGSLRLSCAASGRISRCYVMGWYRQEPGKERELVAAITWNSGSTYYADSVKGRFTISRDNAKNTVYLQMNSLKPEDTAVYYCAAVLYSRYQQYDFWGQGTQVTVSS | polyreactivity (PSR sort gate) | high polyreactivity |
| QVQLVESGGGLVQAGGSLRLSCAASGRIFRNNAMGWYRQAPGKERELVAAITWSGGSTYYADSVKGRFTISRDNAKNTVYLQMNSLKPEDTAVYYCNAGRGYKYSYTYDYWGQGTQVTVSS | polyreactivity (PSR sort gate) | low polyreactivity |
| QVQLEESRGCLVQAGGSLRLSCAASGSIFYVYAMGWYRQAPGKERELVAAINTSGGSTYADSVMGRFTISRDNAKNTVYLQMNILIPEDNAFYYCAADGYYEYTWGEYDSWGQGTQVTVSS | polyreactivity (PSR sort gate) | low polyreactivity |
| QVQLVESGGGLVQAGGSLRLSCAASGRIFAVNAMGWYRQAPGKERELVATIRGSGTSTYYADSVKGRFTISRDNAKNTVYLQMNSLKPEDTAVYYCAARGRYRQFNYWGQGTQVTVSS | polyreactivity (PSR sort gate) | high polyreactivity |
| QVQLVESGGGLVQAGGILRLSCAASGRIINIYAMGWYRQAPGKEREMVAAISGSGGRTSYADSVKGRFTFSRDNAKNTVYLQMNILKPEDTAVYYCAADYSYYTSFRYDYWGQGTQVTVSS | polyreactivity (PSR sort gate) | low polyreactivity |
